Below, each entry is listed with its recorded SA (surface activity).
Molecular target: T1, recombinant human FGF23 (R179Q) (human, UniProt Q9GZV9 25-251)
T1 construct: also called rhFGF23(R179Q); hFGF23(R179Q)
T1 sequence (looked up): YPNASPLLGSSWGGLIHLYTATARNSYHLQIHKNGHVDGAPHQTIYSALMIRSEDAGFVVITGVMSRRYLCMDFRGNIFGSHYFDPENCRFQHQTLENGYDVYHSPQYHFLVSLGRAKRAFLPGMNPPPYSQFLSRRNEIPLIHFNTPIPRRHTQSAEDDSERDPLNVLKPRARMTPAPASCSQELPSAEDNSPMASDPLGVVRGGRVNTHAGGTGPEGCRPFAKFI
Assay: SPR, antibody captured on hIgG chip, rhFGF23(R179Q) analyte
MEASUREMENT TYPE: SA (surface activity) (%)

UGX192 (antibody, human IgG1, kappa, V domains shown, also called HC:N52F, HC:V101I) VH: QVQLVQSGAEVKKPGASVKVSCKASGYTFTNHYMHWVRQAPGQGLEWMGIIFPISGSTSNAQKFQGRVTMTRDTSTSTVYMELSSLRSEDTAVYYCARDIIDAFDFWGQGTMVTVSS VL: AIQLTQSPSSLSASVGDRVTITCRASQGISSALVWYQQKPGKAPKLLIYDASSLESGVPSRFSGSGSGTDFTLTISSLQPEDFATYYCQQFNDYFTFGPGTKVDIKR ... 82.3
UGX148 (antibody, human IgG1, kappa, V domains shown, also called HC:T30F) VH: QVQLVQSGAEVKKPGASVKVSCKASGYTFFNHYMHWVRQAPGQGLEWMGIINPISGSTSNAQKFQGRVTMTRDTSTSTVYMELSSLRSEDTAVYYCARDIVDAFDFWGQGTMVTVSS VL: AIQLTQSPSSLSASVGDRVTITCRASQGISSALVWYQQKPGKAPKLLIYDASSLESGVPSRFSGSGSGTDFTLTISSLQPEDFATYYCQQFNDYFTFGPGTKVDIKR ... 91.2
UGX133 (antibody, human IgG1, kappa, V domains shown, also called UGX022; LC:S53Y) VH: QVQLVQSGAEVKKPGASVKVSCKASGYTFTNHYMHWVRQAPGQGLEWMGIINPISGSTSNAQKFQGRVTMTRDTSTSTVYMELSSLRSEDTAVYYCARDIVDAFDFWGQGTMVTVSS VL: AIQLTQSPSSLSASVGDRVTITCRASQGISSALVWYQQKPGKAPKLLIYDASYLESGVPSRFSGSGSGTDFTLTISSLQPEDFATYYCQQFNDYFTFGPGTKVDIKR ... 84.8
